Numbers sourced from patent US11091472B2.

test: in vitro; format: cell-based
propertyLabel: CC50

// query Given the entry COc1ccc(-c2sc(NC(=O)C3CCCC3)nc2C)cc1S(=O)(=O)Nc1ccc(O)cc1 [Compound 1] , report its measured CC50.
// result > 10 µM

* * *

// each record: one item and its IC50 for PI3K p110a (Homo sapiens (Human), UniProt P42336)

// query Given the entry COc1ccc(-c2sc(NC(=O)CC3CCOCC3)nc2C)cc1S(=O)(=O)Nc1cc(C)cc(O)c1 [Compound S-169] , report its measured IC50.
// result > 10 µM

// query Request: COc1ncc(-c2sc(NC(=O)CC3CCOCC3)nc2C)cc1S(=O)(=O)N[C@H]1CC[C@@H](O)CC1 [Compound S-262]
// result > 10 µM

// query Request: COc1ccc(-c2sc(N[C@H](C)CC3CCCCC3)nc2C)cc1S(=O)(=O)NC1CCNCC1 [Compound S-145]
// result > 10 µM

// query Request: COc1ccc(-c2sc(NC(=O)CC3CCOCC3)nc2C)cc1S(=O)(=O)Nc1ccc(O)cc1 [Compound S-227]
// result > 10 µM

// query Request: COc1ncc(-c2sc(NC(=O)CC3CCOCC3)nc2C)cc1S(=O)(=O)Nc1cccc(O)c1 [Compound S-259]
// result 1 to 10 µM

* * *

target: PI3KC2G (Homo sapiens (Human))
Sequence (O75747 whole entry): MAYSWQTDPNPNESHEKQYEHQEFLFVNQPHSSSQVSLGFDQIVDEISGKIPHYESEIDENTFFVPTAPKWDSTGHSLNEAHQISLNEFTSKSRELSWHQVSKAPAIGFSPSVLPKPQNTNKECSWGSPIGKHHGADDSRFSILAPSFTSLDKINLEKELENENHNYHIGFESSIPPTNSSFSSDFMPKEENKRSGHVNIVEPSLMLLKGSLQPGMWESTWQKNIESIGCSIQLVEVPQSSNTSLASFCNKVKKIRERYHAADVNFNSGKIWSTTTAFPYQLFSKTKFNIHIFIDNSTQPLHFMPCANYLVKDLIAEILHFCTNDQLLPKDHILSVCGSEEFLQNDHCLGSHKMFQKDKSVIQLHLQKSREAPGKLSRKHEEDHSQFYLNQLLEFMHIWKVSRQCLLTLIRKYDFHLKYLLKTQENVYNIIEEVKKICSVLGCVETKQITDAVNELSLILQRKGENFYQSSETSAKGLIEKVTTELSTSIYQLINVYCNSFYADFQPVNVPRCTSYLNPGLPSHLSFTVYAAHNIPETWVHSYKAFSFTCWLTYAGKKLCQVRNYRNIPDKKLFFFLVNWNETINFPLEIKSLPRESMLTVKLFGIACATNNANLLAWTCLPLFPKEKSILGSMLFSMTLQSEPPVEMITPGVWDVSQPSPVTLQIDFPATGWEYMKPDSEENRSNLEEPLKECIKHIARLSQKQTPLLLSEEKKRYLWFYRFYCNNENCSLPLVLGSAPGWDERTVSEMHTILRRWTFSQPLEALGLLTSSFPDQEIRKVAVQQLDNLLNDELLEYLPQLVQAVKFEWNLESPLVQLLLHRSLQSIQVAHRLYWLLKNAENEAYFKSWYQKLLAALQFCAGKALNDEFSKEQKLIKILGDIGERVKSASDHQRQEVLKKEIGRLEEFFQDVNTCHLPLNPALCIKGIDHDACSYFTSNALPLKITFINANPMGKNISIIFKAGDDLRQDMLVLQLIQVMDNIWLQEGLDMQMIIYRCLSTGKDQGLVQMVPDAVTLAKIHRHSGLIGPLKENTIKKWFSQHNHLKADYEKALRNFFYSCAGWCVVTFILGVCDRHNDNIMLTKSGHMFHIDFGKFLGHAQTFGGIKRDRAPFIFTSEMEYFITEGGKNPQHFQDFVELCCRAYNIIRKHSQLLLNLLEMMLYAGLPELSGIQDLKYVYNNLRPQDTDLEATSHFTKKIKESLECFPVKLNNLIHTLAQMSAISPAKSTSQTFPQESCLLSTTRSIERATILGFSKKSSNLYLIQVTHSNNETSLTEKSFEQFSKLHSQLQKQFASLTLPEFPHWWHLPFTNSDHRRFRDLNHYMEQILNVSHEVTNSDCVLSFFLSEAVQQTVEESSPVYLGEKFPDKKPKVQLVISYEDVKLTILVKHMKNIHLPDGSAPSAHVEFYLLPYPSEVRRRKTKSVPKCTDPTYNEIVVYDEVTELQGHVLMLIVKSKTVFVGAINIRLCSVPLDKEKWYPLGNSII
Consider the following compounds; for each one, report its IC50.

// query Given the entry COc1ncc(-c2sc(NC(=O)CC3CCOCC3)nc2C)cc1S(=O)(=O)Nc1cccc(C(=O)O)c1 [Compound S-265] , report its measured IC50.
// result 1 to 10 µM

// query Request: COc1ncc(-c2sc(NC(=O)CC3CCOCC3)nc2C)cc1S(=O)(=O)N[C@H]1CC[C@@H](O)CC1 [Compound S-262]
// result 0.1 to 1 µM

// query Request: COc1ncc(-c2sc(NC(=O)CC3CCOCC3)nc2C)cc1S(=O)(=O)Nc1ccc(F)cc1F [Compound S-260]
// result > 10 µM

// query Request: COc1ccc(-c2sc(NC(=O)CC3CCOCC3)nc2C)cc1S(=O)(=O)Nc1ccc(F)cc1 [Compound S-170]
// result > 10 µM

// query Request: COc1ccc(-c2sc(NCC3CCCCC3)nc2C)cc1S(=O)(=O)NCC1CCCCC1 [Compound S-128]
// result > 10 µM

// query Request: COc1ccc(-c2sc(NC(=O)CC3CCOCC3)nc2C)cc1S(=O)(=O)Nc1cc(C)cc(O)c1 [Compound S-169]
// result > 10 µM

// query Request: COc1ccc(-c2sc(NC(C)C)nc2C)cc1S(=O)(=O)N[C@H]1CC[C@H](O)CC1 [Compound S-215]
// result 1 to 10 µM

* * *

tested on: EV71; experiment: EV71 antiviral assay; assay type: cell-based; settings: Enterovirus A
pEC50: −log10 of the molar value.
propertyLabel: pEC50

// query Given the entry `COc1ccc(-c2sc(NC3CCCCCC3)nc2C)cc1S(=O)(=O)Nc1c(C)cccc1C` , report its measured pEC50.
// result > 9.00

* * *

system: Influenza A virus H1N1; experiment: Influenza A virus H1N1 cell based antiviral assay
pEC50: −log10 of the molar value.
propertyLabel: pEC50

// query Given the entry `COc1ccc(-c2sc(NC(=O)CC3CCOCC3)nc2C)cc1S(=O)(=O)Nc1ccc(O)cc1` , report its measured pEC50.
// result < 5.00

// query Request: COc1ccc(-c2sc(NC(C)C3CCOCC3)nc2C)cc1S(=O)(=O)Nc1ccccc1Cl (stereo not shown)
// result 5.00 to 6.00

// query Request: COc1ccc(-c2sc(NC(C)C3CCOCC3)nc2C)cc1S(=O)(=O)NC1CCC(O)CC1 (stereo not shown)
// result < 5.00

// query Request: `COc1ccc(-c2sc(NC3CCCCCC3)nc2C)cc1S(=O)(=O)Nc1c(C)cccc1C`
// result < 5.00
